# measured.target: UniProt:P29375
# Sequence (P29375 whole entry, species assumed): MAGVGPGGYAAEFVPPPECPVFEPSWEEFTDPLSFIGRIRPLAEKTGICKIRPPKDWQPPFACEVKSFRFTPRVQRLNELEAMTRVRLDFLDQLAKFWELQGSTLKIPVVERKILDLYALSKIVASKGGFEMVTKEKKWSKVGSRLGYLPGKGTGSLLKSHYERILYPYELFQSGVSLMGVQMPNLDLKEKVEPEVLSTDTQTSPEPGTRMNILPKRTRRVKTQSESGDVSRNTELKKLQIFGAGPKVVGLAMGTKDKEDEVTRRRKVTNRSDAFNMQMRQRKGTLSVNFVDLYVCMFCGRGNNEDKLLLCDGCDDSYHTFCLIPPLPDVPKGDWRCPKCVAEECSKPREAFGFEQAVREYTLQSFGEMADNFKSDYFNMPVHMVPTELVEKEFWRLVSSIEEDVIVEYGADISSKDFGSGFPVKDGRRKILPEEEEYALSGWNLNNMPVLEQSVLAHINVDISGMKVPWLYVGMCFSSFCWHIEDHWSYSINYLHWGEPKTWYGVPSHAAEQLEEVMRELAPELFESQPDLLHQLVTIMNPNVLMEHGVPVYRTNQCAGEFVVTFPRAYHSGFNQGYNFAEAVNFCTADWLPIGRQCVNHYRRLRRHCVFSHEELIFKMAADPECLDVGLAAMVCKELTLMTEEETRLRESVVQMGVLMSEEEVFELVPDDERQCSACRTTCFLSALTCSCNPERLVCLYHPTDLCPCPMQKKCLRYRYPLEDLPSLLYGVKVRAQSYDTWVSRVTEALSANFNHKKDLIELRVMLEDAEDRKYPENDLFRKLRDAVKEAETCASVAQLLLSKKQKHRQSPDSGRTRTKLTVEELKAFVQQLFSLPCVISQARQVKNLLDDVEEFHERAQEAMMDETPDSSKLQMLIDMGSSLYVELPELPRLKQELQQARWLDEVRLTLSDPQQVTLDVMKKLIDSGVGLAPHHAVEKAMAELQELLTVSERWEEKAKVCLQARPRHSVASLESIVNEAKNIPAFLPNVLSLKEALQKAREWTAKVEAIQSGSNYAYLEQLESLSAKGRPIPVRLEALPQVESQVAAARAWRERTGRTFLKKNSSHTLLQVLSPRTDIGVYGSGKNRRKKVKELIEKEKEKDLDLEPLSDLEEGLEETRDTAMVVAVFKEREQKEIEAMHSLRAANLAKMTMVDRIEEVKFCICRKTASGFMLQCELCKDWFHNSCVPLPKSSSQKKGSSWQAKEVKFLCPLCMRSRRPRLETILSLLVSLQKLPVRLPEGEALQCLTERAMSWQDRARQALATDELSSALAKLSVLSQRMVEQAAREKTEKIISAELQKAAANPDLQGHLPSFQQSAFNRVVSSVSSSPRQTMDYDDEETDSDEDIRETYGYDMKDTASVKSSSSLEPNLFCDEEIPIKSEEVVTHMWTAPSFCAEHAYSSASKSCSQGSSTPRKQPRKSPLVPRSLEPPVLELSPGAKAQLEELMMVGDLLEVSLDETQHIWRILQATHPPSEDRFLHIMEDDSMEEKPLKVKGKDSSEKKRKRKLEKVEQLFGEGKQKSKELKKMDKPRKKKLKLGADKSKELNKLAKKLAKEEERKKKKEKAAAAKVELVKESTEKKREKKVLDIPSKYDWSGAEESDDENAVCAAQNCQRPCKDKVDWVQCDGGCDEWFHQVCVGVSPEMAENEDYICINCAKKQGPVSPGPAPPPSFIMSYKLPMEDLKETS
# protocol.summary: Inhibitory activity against histone demethylase (in vitro IC50)
# Format: biochemical
experimental.readout: IC50

# compound, experimental.readout, test.value
rows = [
    ("CCCn1nc(Nc2cncnc2C(=O)O)c2ccccc21 [Example 12]", "IC50", "< 3 µM"),
]
